Test system: Proto-oncogene tyrosine-protein kinase receptor Ret (Homo sapiens), P07949 [Y791F]
Sequence (P07949 whole entry Y791F): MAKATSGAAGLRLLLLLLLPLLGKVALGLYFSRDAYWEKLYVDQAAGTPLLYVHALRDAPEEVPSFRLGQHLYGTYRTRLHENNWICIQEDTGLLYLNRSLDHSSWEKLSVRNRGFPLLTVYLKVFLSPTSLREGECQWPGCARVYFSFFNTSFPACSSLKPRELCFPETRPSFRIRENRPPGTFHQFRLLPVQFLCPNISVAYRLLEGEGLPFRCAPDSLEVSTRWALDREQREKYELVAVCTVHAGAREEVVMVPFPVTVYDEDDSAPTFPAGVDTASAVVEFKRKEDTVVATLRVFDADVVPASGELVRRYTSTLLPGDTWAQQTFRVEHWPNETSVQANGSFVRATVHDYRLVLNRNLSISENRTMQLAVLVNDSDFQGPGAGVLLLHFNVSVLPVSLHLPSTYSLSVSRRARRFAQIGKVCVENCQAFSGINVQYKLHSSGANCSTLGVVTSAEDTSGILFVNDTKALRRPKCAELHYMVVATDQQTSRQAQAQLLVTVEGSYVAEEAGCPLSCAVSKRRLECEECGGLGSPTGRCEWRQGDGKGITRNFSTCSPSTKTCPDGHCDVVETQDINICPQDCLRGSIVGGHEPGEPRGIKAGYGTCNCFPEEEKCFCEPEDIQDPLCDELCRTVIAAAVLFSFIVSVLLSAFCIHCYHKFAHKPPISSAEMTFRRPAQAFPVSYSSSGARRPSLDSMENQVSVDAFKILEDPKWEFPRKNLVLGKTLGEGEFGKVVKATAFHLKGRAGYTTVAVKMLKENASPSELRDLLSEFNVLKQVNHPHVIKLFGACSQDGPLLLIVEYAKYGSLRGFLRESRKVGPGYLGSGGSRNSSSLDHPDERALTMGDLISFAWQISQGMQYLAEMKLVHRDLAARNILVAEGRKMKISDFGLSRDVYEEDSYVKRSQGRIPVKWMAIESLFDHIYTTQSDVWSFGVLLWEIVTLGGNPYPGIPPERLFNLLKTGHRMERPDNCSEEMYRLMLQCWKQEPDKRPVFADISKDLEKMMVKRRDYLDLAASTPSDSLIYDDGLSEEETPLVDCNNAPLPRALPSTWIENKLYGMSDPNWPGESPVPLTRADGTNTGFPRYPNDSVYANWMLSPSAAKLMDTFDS
Conditions: at 1 µM
parameter measured: inhibition (%)
Output spec: scalar in %, unitless text.

Exercise: Indicate its recorded inhibition; the molecule in question is `NC(=O)c1sc(-n2cnc3ccc(C(F)(F)F)cc32)cc1OCc1ccccc1Br`
Solution: 11.1

Exercise: Indicate its recorded inhibition; the molecule in question is `COc1ccc(-c2nn3ncccc3c2-c2ccnc(Nc3ccc4c(c3)OCCO4)n2)cc1`
Solution: 56.2

Exercise: Indicate its recorded inhibition; the molecule in question is `COC(=O)Nc1nc2ccc(Oc3ccc(NC(=O)Nc4cccc(Cl)c4)cc3)cc2[nH]1`
Solution: 79.7

Exercise: Indicate its recorded inhibition; the molecule in question is `N#Cc1c(NC(=O)CN2CCOCC2)sc2c1CCCC2`
Solution: 8.63

Exercise: Indicate its recorded inhibition; the molecule in question is `COc1ccc2c(-c3ccnc(Nc4cccc(OC(F)(F)F)c4)n3)cnn2n1`
Solution: 11.9
